# Test system: U937 cells (monocytic cell line)
# protocol-text: Cell proliferation inhibition assay (WST-1), U937
# Format: cell-based
# condition-info: Homo sapiens, U-937; U937 monocytic cell line; read-out: Cell proliferation IC50 nM (U937 cells)
reported-metric: IC50 (nM)

Cc1c(CNc2ccc(CN[C@@H](CC(C)C)C(=O)OC3CCCC3)cc2)cnc2nc(N)nc(N)c12	310

(I) COc1cc2nccc(Oc3ccc(NC(=O)c4ccccc4)cc3)c2cc1OC [Compound 11, reference compound]
(II) COc1cc2c(Oc3ccc(NC(=O)c4ccccc4)cc3)ccnc2cc1OCC[C@H](N)C(=O)OC(C)(C)C
INPUT: Compare IC50: is it lower for I or for II ? Label of pick, please.
OUTPUT: II
(II: 75 nM, I: 430 nM)

* * *

# test-target: p38 MAP kinase α (Homo sapiens, UniProt Q16539)
# Construct: full length human enzyme expressed in E coli as an N-terminally GST-tagged protein; GST (N); purchased Upstate (Dundee UK), assay run by the vendor; host or cells: E. coli
# Sequence (Q16539 whole entry): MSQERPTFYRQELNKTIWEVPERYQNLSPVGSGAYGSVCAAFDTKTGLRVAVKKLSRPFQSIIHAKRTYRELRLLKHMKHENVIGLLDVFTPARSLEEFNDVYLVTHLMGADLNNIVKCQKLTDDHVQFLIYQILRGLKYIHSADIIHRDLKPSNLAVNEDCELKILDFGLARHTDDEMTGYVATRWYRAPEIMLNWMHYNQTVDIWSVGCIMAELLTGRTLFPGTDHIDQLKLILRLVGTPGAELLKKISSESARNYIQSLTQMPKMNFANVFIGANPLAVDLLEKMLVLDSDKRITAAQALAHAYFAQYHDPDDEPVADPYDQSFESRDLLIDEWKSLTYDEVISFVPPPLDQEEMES
# protocol-text: P38 MAP kinase α inhibitory activity assay
# Format: biochemical
# condition-info: ATP 90 μM; read-out: Enzyme inhibition IC50 nM (P38 MAP kinase)
Structures can show the parent of a compound that is named as a salt.
reported-metric: IC50 (nM)

A selection of reference data follows.
CC(C)(C)OC(=O)[C@@H](N)CCOc1cc(F)c(-n2c(N)c(C(=O)c3ccc(F)cc3F)ccc2=O)c(F)c1	40
Nc1c(C(=O)c2ccc(F)cc2F)ccc(=O)n1-c1c(F)cc(OCC[C@H](N)C(=O)OC2CCCC2)cc1F [Compound 16, trifluoroacetate]	25

(1) Nc1c(C(=O)c2ccc(F)cc2F)ccc(=O)n1-c1c(F)cccc1F [Compound 15, reference compound]
(2) Nc1c(C(=O)c2ccc(F)cc2F)ccc(=O)n1-c1c(F)cc(OCC[C@H](N)C(=O)O)cc1F
INPUT: Which is greater in IC50, the first item 1 or the second item 2 ? Label of pick, please.
OUTPUT: 1

* * *

# System: U937 cells (monocytic cell line)
# protocol-text: Cell proliferation inhibition assay (WST-1), U937
# Assay type: cell-based
# condition-info: Homo sapiens, U-937; U937 monocytic cell line; read-out: Cell proliferation IC50 nM (U937 cells)
reported-metric: IC50 (nM)

(P) COc1cc2c(Oc3ccc(NC(=O)c4ccccc4)cc3)ccnc2cc1OCC[C@H](N)C(=O)OC1CCCC1
(Q) Cc1c(CNc2ccc(C(=O)N[C@@H](CC(C)C)C(=O)OC3CCCC3)cc2)cnc2nc(N)nc(N)c12
INPUT: Compare IC50: is it lower for P or for Q ? Label of pick, please.
OUTPUT: P
(P: 3.5 nM, Q: 23 nM)

* * *

# test-target: PI 3-kinase γ (Homo sapiens, UniProt P48736)
# Construct: recombinant N-terminally His6-tagged, full length human enzyme; His6 (N); purchased Upstate (Dundee, UK), assay run by the vendor; host or cells: baculovirus / Sf21 insect cells
# Sequence (P48736 whole entry): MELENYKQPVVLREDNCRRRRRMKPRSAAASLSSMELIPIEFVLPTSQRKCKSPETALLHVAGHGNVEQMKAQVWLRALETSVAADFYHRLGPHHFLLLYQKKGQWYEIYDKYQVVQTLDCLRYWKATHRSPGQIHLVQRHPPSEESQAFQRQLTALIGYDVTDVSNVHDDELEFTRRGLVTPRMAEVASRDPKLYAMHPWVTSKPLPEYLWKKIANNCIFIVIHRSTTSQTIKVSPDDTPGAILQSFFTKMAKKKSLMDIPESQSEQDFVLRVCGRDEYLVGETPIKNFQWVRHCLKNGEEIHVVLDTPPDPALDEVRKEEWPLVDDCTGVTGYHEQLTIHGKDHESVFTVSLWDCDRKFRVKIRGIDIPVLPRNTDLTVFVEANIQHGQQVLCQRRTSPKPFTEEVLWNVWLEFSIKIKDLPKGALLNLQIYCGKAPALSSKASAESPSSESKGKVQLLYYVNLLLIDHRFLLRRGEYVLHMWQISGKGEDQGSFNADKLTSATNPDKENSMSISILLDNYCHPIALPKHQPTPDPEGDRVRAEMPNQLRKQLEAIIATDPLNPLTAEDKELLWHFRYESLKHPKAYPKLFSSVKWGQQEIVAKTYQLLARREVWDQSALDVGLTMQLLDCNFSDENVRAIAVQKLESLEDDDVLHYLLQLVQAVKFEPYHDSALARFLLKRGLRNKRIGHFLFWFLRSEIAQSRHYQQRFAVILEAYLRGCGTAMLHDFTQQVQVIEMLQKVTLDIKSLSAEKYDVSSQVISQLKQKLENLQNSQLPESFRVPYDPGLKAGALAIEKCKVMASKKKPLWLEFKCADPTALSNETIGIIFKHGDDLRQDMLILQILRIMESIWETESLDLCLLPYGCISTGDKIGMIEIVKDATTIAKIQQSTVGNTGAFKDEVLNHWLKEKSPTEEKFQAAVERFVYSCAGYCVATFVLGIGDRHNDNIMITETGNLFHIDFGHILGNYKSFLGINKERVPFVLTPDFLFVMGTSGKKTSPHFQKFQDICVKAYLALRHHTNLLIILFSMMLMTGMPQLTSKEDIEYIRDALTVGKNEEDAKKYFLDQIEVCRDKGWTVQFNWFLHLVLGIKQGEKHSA
# protocol-text: PI 3-kinase γ inhibition assay (HTRF)
# Assay type: biochemical
# condition-info: 100 μM MgATP; read-out: Enzyme inhibition IC50 nM (PI3-Kinase)
# Description: The measurement of PI 3-kinase γ activity is dependent upon the specific and high affinity binding of the GRP1 pleckstrin homology (PH) domain to PIP3, the product of PI 3-kinase activity. […] This complex generates a stable time-resolved fluorescence resonance energy transfer (FRET) signal, which is diminished by competition of PIP3, generated in the PI 3-kinase assay, with the biotinylated PIPS. […]
reported-metric: IC50 (nM)

A selection of reference data follows.
Cc1nc(NC(=O)CC[C@H](N)C(=O)OC(C)(C)C)sc1-c1ccc(Cl)c(S(C)(=O)=O)c1	7100
Cc1nc(NC(=O)CC[C@H](N)C(=O)O)sc1-c1ccc(Cl)c(S(C)(=O)=O)c1	3600

(a) Cc1nc(NC(=O)CC[C@H](N)C(=O)OC2CCCC2)sc1-c1ccc(Cl)c(S(C)(=O)=O)c1
(b) CC(=O)Nc1nc(C)c(-c2ccc(Cl)c(S(C)(=O)=O)c2)s1 [Compound 20, reference compound]
INPUT: Which is greater in IC50, the first item a or the second item b ? Label of pick, please.
OUTPUT: a
